Values from PubChem BioAssay (NCI)

Test system: MOLT-4 leukemia
Assay: NCI tumour cell line growth inhibition, 48 h

{"compound": "CSc1c(C(=O)Nc2ccc(Cl)cc2)c(N)n(N)c(=O)c1C#N", "TGI": "> 100 µM"}
{"compound": "CCOC(=O)Cc1nc2c(N)ncnc2n1C1OC(COC(C)=O)C(OC(C)=O)C1OC(C)=O (centres undefined)", "TGI": "> 100 µM"}
{"compound": "O=C(CCc1ccccc1)On1c(-c2ccccc2)nc2ccccc2c1=S", "TGI": "23.3 µM"}
{"compound": "Cc1ccc2c(c1)C(=O)C(C1OC(=O)c3ccccc31)C2 (centres undefined)", "TGI": "> 100 µM"}
{"compound": "CC1=C(C(=O)Nc2cc(F)c(F)cc2F)C(c2ccc([N+](=O)[O-])cc2)C(C(=O)Nc2cc(F)c(F)cc2F)=C(C)N1", "TGI": "> 100 µM"}
{"compound": "COc1ccc(/C=C/C2=NN(c3cccc(S(=O)(=O)O)c3)C3(C2)SCC(=O)N3c2nc3ccccc3s2)cc1 (centres undefined)", "TGI": "> 100 µM"}
{"compound": "NC(=S)c1c(N)n(C2OC(CO)C(O)C2O)c2ncnc(N)c12 (centres undefined)", "TGI": "0.927 µM"}
{"compound": "CN1C(=O)C2(c3ccccc31)N(c1ccc(Cl)cc1)C(=O)C2(c1ccccc1)c1ccccc1 (centres undefined)", "TGI": "> 100 µM"}
{"compound": "N=c1c2c(=N)n3c(nc2nc2n1-c1ccccc1Sc1ccccc1-2)sc1cc(Cl)ccc13", "TGI": "> 100 µM"}

====

Test system: NCI/ADR-RES ovarian
Assay: NCI tumour cell line growth inhibition, 48 h

{"molecule": "N#CC1c2ccccc2C=CN1C(=O)N(c1ccccc1)c1ccccc1 (stereo not given)", "GI50": "5520 nM"}
{"molecule": "COc1ccc(N(C)c2nc(N)nc3sc4c(c23)CCCC4)cc1", "GI50": "< 10 nM"}
{"molecule": "COc1ccc(/C(C#N)=C2C=C/C(=N/O)c3ccccc3\\2)cc1", "GI50": "125 nM"}
{"molecule": "CN1CCN(CCCOc2cccc3nc(Nc4ccc(Cl)c(C(F)(F)F)c4)ccc23)CC1", "GI50": "1730 nM"}
{"molecule": "CN(CCCNC(=O)CCOCCOCCOCCNC(=O)Cc1ccc2ccc3cccc4ccc1c2c34)CCCNc1cc(-c2ccc3ccccc3c2)nc2ccccc12", "GI50": "4220 nM"}

====

Tested on: SF-539 CNS
Assay: NCI tumour cell line growth inhibition, 48 h

{"compound": "O=C1/C=C/[C@@H](O)[C@@H]2C[C@@H](O)C[C@H]2/C=C/CCC[C@H](C(F)(F)F)O1", "target system": "SF-539 CNS", "GI50": "0.504 µM"}
{"compound": "O=[N+]([O-])c1cccc(C2CC(c3ccccc3)=Nc3ccccc3S2)c1 (centres undefined)", "target system": "SF-539 CNS", "GI50": "17.2 µM"}
{"compound": "COc1ccc(N(C)c2nc(N)nc3sc4c(c23)CCCC4)cc1", "target system": "SF-539 CNS", "GI50": "< 0.01 µM"}
{"compound": "COc1cc2c3c(n(C)c(=O)c2cc1OC)-c1ccc(C#N)cc1C3=O", "target system": "SF-539 CNS", "GI50": "> 100 µM"}
{"compound": "CSc1ccc2c(c1)C(N1CCN(C)CC1)Cc1ccccc1S2 (centres undefined)", "target system": "SF-539 CNS", "GI50": "1.87 µM"}
{"compound": "COc1ccc(/C(C#N)=C2C=C/C(=N/O)c3ccccc3\\2)cc1", "target system": "SF-539 CNS", "GI50": "0.2 µM"}
{"compound": "COc1cc2nc3cc([N+](=O)[O-])ccc3c(NCCNCC(C)(C)O)c2cc1OC", "target system": "SF-539 CNS", "GI50": "0.566 µM"}
{"compound": "CCCCCCC[CH2][Sn]1([CH2]CCCCCCC)[O]C(=O)c2cccnc2[O]1", "target system": "SF-539 CNS", "GI50": "> 100 µM"}
{"compound": "CCCCCCCCCCCCCC[C@@H](O)[C@H]1CC[C@H]([C@H]2CC[C@H]([C@H](O)CCCCCC[C@@H](O)CC3=C[C@H](C)OC3=O)O2)O1", "target system": "SF-539 CNS", "GI50": "2.25 µM"}
